The measured values listed here are drawn from ChEMBL document CHEMBL3507680.

Entries and their cytotoxicity at 70.5 h
assay: Human HepG2 cell viability assay in 384 well format; format: toxicity, cell-based; set-up: dose 125 nL, time 70.5 hour; concentration not given beside the values; conditions: HepG2 cells, read-out: Inhibition
Record the result as number plus unit.

1) O=C1CC2(CCCNC2)C(=O)N1Cc1ccccc1 (centres undefined): 18.9%
2) C=Cc1ccc(C(=O)N2CCCC(Nc3ccc(OC)cc3)C2)cc1 (centres undefined): -7.62%
3) COc1ccc(C(=O)N2CCO[C@H]3[C@@H](OCC4CC4)CC[C@@H]32)cc1F: -2.05%
4) CC(C)n1cc(CN2CCCN(C(=O)C(C)n3cccn3)CC2)cn1 (centres undefined): -2.97%
5) Fc1cccc(-n2cccn2)c1NCc1nnc(C2CC2)o1: -2.54%
6) O=C(c1cc2c(F)cccc2[nH]1)N1CCCCC1Cn1cccn1 (centres undefined): 3.2%
7) CSCC(=O)NC1(c2cccc(Cl)c2)CC1: -3.77%
8) Cc1cc(C(=O)N2CCCC(N3CCCCCC3)C2)nn1C(C)(C)C (centres undefined): 16.8%

Data point: CCCc1nc(N2Cc3cnn(Cc4ccc(F)cc4)c3C2)no1 ; cytotoxicity at 70.5 h = -12.8%

Data point: CCc1ccc(CN2CCN(C)c3ncccc3C2)o1 ; cytotoxicity at 70.5 h = 24.1%

Data point: CC(C(=O)Nc1ncccn1)N1CCCN(c2nccs2)CC1 (centres undefined) ; cytotoxicity at 70.5 h = -13.8%

Data point: COc1ccc(F)cc1C[S+]([O-])CC(=O)NCC(C)C (centres undefined) ; cytotoxicity at 70.5 h = -0.815%

Data point: CCc1nc(CNCCn2cc(C)cn2)no1 ; cytotoxicity at 70.5 h = -5.71%

* * *

assay: Human HepG2 cell viability assay in 384 well format; assay type: toxicity, cell-based; parameters: dose 125 nL, time 70.5 hour; concentration not given beside the values; conditions: HepG2 cells, read-out: Inhibition
Entries and their cytotoxicity at 70.5 h
Answer in %, number only, no unit symbol.

Solved cases below.
1. O=C(CC1CCCC1)N1CCC(c2noc(-c3ccccn3)n2)CC1: 6.76
2. COc1ccccc1C(=O)Nc1c(C)cnn1CC1CC1: -21.8
3. O=C1CC[C@H]2CN(Cc3ncc[nH]3)CC[C@H]2N1CC1CCNCC1: -1.94
4. COCC(=O)N1CCC2(CC1)c1ccccc1[C@@H](N1CCSCC1)[C@@H]2O: 4.64
5. CC1(CNC(=O)NCc2ccsc2)CCCS1 (configuration not stated): -8.93

Data point: CC(C)n1cc(N2CC(C(=O)N3CCc4ccccc4C3)CC2=O)cn1 (configuration not stated) ; cytotoxicity at 70.5 h = 26.3

Data point: Oc1cc(CNCCCN2CCCC2)nc2ccc(F)cc12 ; cytotoxicity at 70.5 h = 12.5

Data point: CC(C)c1nc(CN(C)C(=O)CNS(=O)(=O)c2cccs2)cs1 ; cytotoxicity at 70.5 h = -6.67

Data point: CCc1nc(CN2CCCN(C(=O)c3cn[nH]c3CC)CC2)cs1 ; cytotoxicity at 70.5 h = 12.4

Data point: CCN(Cc1cnc(C)cn1)C1CCN(c2ccccc2)C1=O (configuration not stated) ; cytotoxicity at 70.5 h = 2.9

Data point: CC(C)c1n[nH]c(C2CN(CCc3cccs3)CCO2)n1 (configuration not stated) ; cytotoxicity at 70.5 h = -6.41

Data point: Cc1cnn(CC2CN(Cc3ccc(C(N)=O)cc3)CCO2)c1 (configuration not stated) ; cytotoxicity at 70.5 h = -7.11

Data point: O=C(O)CC(CC(=O)NCCc1cccs1)c1cccs1 (configuration not stated) ; cytotoxicity at 70.5 h = 3.06

Data point: CN1C(=O)C2(CCN(C(=O)C3CCOCC3)CC2)c2ccccc21 ; cytotoxicity at 70.5 h = -3.31

* * *

test: Human HepG2 cell viability assay in 384 well format; format: toxicity, cell-based; parameters: dose 125 nL, time 70.5 hour; concentration not given beside the values; conditions: HepG2 cells, read-out: Inhibition
Entries and their cytotoxicity at 70.5 h
Answer in %, number only, no unit symbol.

1. CS(=O)(=O)N1CC2(CCN(CC3CCCCC3)C2)Cc2ccccc21 (configuration not stated): -3.19
2. OC1CCCOC12CCN(Cc1nnc(-c3cccnc3)o1)CC2 (configuration not stated): 0.216
3. CCn1ccnc1CN1CCN(CC(O)c2ccccc2)CC1 (configuration not stated): -15.4
4. Cc1cc(C)n(C2CCCN(C(=O)Cc3cn4ccsc4n3)C2)n1 (configuration not stated): -13.1
5. CCS(=O)(=O)N[C@H]1CN(CC(C)(C)N2CCOCC2)C[C@@H]1C1CC1: -18.9
6. CN(Cc1cc(Br)cn1C)C(=O)c1ccsc1: -7.08

Data point: COCC1CCN(c2cc(C3CN(C)CCO3)nc(C)n2)CC1 (configuration not stated) ; cytotoxicity at 70.5 h = 0.671

Data point: CCCc1cc(C(=O)N2CCCN(c3cccnn3)CC2)[nH]n1 ; cytotoxicity at 70.5 h = -0.666

Data point: O=S(=O)(C1CC1)N1CCOC2(CCCN(c3ccccc3)C2)C1 (configuration not stated) ; cytotoxicity at 70.5 h = 7.04

Data point: Cc1cnc2n(c1=O)CC(C(=O)NC1CC1)CS2 (configuration not stated) ; cytotoxicity at 70.5 h = 2.18

Data point: CCSc1cc(C(=O)NCCC(=O)Nc2ccccn2)ccn1 ; cytotoxicity at 70.5 h = -3.16

Data point: CN(CCc1ccccn1)CCc1nccs1 ; cytotoxicity at 70.5 h = -8.22

* * *

assay: Human HepG2 cell viability assay in 384 well format; assay type: toxicity, cell-based; set-up: dose 125 nL, time 70.5 hour; concentration not given beside the values; details: HepG2 cells, read-out: Inhibition
Entries and their cytotoxicity at 70.5 h
Answer in %, number only, no unit symbol.

Solved cases below.
1. O=C(Nc1ccccc1)N1C(CN2CCOCC2)[C@]2(O)CC[C@H]1CC2 (stereo partly specified): -2.88
2. Cc1nccn1C1CCCN(C(=O)c2ccc3c(c2)nnn3C)C1 (stereo unspecified): -6.07
3. O=C(NCCc1cccc(F)c1)c1nc2c(s1)CCCN2C(=O)C1CC1: -5.89
4. O=C(CCc1ccccc1)N1CCC(c2n[nH]c(C3CC3)n2)CC1: -7.31
5. Cc1nc2c(Nc3ccc(C#N)cc3)nc(N)nc2n1C: -1.73

Data point: CC(C)Oc1ncc(C(=O)N2CCC(N(C)C)CC2)cc1Cl ; cytotoxicity at 70.5 h = -9.31

Data point: CO[C@H]1CN(Cc2cccc(C#N)c2)[C@@H]2COC[C@H]12 ; cytotoxicity at 70.5 h = -0.497

Data point: Cc1noc(C)c1S(=O)(=O)NCC(O)c1ccc2c(c1)CCO2 (stereo unspecified) ; cytotoxicity at 70.5 h = 17.6

Data point: CCn1nnc2c1C(COCCN(C)C)CN(S(C)(=O)=O)C2 (stereo unspecified) ; cytotoxicity at 70.5 h = 2.19

Data point: c1ccc2oc(CN3CCOC(Cn4cccn4)C3)nc2c1 (stereo unspecified) ; cytotoxicity at 70.5 h = -0.847

Data point: O=C1C(CS(=O)(=O)Nc2ccc(Cl)cc2)=NC(=O)n2cccc21 ; cytotoxicity at 70.5 h = -26.2

* * *

assay: Human HepG2 cell viability assay in 384 well format; format: toxicity, cell-based; parameters: dose 125 nL, time 70.5 hour; concentration not given beside the values; details: HepG2 cells, read-out: Inhibition
PROPERTY LABEL: cytotoxicity at 70.5 h (%)
Answer in %, number only, no unit symbol.

Data point: Cc1cnn(C2CN(Cc3nc(-c4ccco4)no3)C2)c1 ; cytotoxicity at 70.5 h = -10.1

Data point: Cc1cc(Oc2ccccc2)nc(C2CCCCN2)n1 (stereo unspecified) ; cytotoxicity at 70.5 h = 13.4

Data point: Cc1ccc(-c2cccc(N3CCC(NC4CCOCC4)CC3)c2)cc1 ; cytotoxicity at 70.5 h = -2.04

Data point: CO[C@H]1CN(C(=O)c2ccccn2)[C@@H]2CCCO[C@H]12 ; cytotoxicity at 70.5 h = -14.9

Data point: CC(C#N)CSc1ccccc1NCC(=O)Nc1ccc(F)cc1 (stereo unspecified) ; cytotoxicity at 70.5 h = 2.62

Data point: Cc1ccccc1-n1c(O)cc(C)c(C#N)c1=O ; cytotoxicity at 70.5 h = -1.83

* * *

assay: Human HepG2 cell viability assay in 384 well format; type: toxicity, cell-based; set-up: dose 125 nL, time 70.5 hour; concentration not given beside the values; details: HepG2 cells, read-out: Inhibition
Entries and their cytotoxicity at 70.5 h
Answer in %, number only, no unit symbol.

Solved cases below.
1) CC(C)NC(=O)CS(=O)(=O)Cc1cc(Cl)c2c(c1)OCCO2: -1.77
2) CC(NC(=O)NCCn1ccnc1)c1ccc2c(c1)OCCCO2 (centres undefined): -13.2
3) CCc1nnc2n1CC(CNCc1nc(C)c(C)o1)CC2 (centres undefined): -2.88
4) Cc1ccc(NC(=O)[C@H]2C[C@H](C(=O)O)CN(CC3CC3)C2)cn1: -21.8
5) CCn1cnnc1C1CCN(C(=O)c2cc(F)ccc2OC)CC1: -10.6

Data point: CS(=O)(=O)Nc1ccn(Cc2ccc(Br)cc2)n1 ; cytotoxicity at 70.5 h = -8.91

Data point: Cc1ncsc1CN1C[C@H](OCc2ccncc2)[C@H]2OCCC[C@H]21 ; cytotoxicity at 70.5 h = -8.48

Data point: Cc1cccc(C(=O)N2CCn3cnc(COCC4CC4)c3C2)n1 ; cytotoxicity at 70.5 h = -2.97

Data point: CCCc1cc(=O)[nH]c(-c2cccc(CN3CCCCCC3)c2)n1 ; cytotoxicity at 70.5 h = 25.8

Data point: Cn1nc(C2CCNCC2)c2c(C(=O)NC3CC3)cc(C3CC3)nc21 ; cytotoxicity at 70.5 h = 15

Data point: Cc1ccc(-c2n[nH]cc2CNCC2CCN(CC(F)(F)F)C2)o1 (centres undefined) ; cytotoxicity at 70.5 h = -1.74

Data point: CC(C)n1cc(CN2CCCN(C(=O)CN3CCCC3=O)CC2)cn1 ; cytotoxicity at 70.5 h = 58

Data point: O=c1ccc(-c2cccs2)nn1CN1CCN(Cc2ccccc2)CC1 ; cytotoxicity at 70.5 h = -13.1

Data point: CC(C)C(=O)NC1COC2(CCN(C(=O)c3cccnc3)CC2)C1 (centres undefined) ; cytotoxicity at 70.5 h = -3.81

Data point: Cn1c2c(ccc1=O)CC(NC(=O)Cc1ccsc1)CC2 (centres undefined) ; cytotoxicity at 70.5 h = -2.49
